This listing pairs compounds with measured melting point.

INSERT INTO results (compound, outcome_measure, reading) VALUES
  ('CN(Cc1ccc(NC(=O)C2=Cc3cc(-c4ccc(N5CCOCC5)cc4)ccc3N(C=O)CC2)cc1)C1CCOCC1', 'melting point', '234 to 243 °C');

For CCCCC1CCC(c2ccc(C(=O)CC(=O)C(F)(F)F)cc2)CC1 (stereo not given) the compound record lists melting point as 65 °C

Reported melting point ( CCCCOc1ccc(OCC2(O)CN3CCC2CC3)cc1 (stereo not given) ) = 110 to 112 °C

###

The reader will find reported melting point values listed item by item below.

Reference set (5 entries):
INSERT INTO assay_data (compound, outcome_measure, reading) VALUES
  ('N#Cc1cc(Cc2ccc(F)cc2)ccc1N', 'melting point', '105 to 107 °C'),
  ('Cc1nnc(-c2ccc3ncn(-c4cccc(C(F)(F)F)c4)c3c2)o1', 'melting point', '212 to 213 °C'),
  ('CC1(CN2CCN(c3nc4ccccc4o3)CC2)Cn2cc([N+](=O)[O-])nc2O1 (stereo not drawn)', 'melting point', '228 to 230 °C'),
  ('COc1csc2ccc(C(=O)CC(=O)C3CC3)c(OC)c12', 'melting point', '77.5 to 80 °C'),
  ('CC(=NO)C(C)(C)NCC(C)CNC(C)(C)C(Cn1ccnc1[N+](=O)[O-])=NO (stereo not drawn)', 'melting point', '167 to 168 °C');

Looking up Cc1nc(N)sc1S(=O)(=O)N(CCO)CCO , I found its melting point recorded as 141 °C

Query CC(=O)N1CCc2c(sc(C)c2C(=O)CCN2CCC(c3noc4cc(F)ccc34)CC2)C1 yields melting point of 180 to 182 °C

Lab note: Cc1cc(=O)n2cccc(OCc3ccccc3Br)c2n1 gave melting point of 144 to 146 °C

###

melting point values for the molecules below.

INSERT INTO results (molecule, reading) VALUES
  ('COC(=O)CC1OCCN(CCc2c[nH]c3ccc(C)cc23)C1=O (stereo unspecified)', '138 °C'),
  ('Nc1cc2c(Nc3ccc(Br)c(Cl)c3)ncnc2cn1', '272 to 275 °C'),
  ('CN1CCC(=C2c3ccc(F)cc3Sc3ccc(F)cc32)CC1', '120 to 123 °C'),
  ('CNC(=S)NN=C(CCCNC(=O)c1ccccc1)c1ccccc1', '114 to 118 °C'),
  ('O=C1CCCc2nc(N3CCNCC3)ncc2N1', '175 to 178 °C');

Proceed to the following item.
Lab book: melting point of CC(C)n1nc(-c2sc(C(=O)NCc3ccccn3)nc2-c2ccc(F)cc2)ccc1=O noted as 204 to 205 °C

###

The following molecules are listed with their measured melting point values.

Examples from the recorded data:
INSERT INTO results (input_smiles, reading) VALUES
  ('CCc1ccc(Nc2nc3cc([N+](=O)[O-])ccc3o2)cc1', '172 to 173 °C'),
  ('Cc1ccc(-c2c(C(N)=O)n(C)c(=O)c3ncccc23)cc1', '> 310 °C');

Consider the additional molecule presented here.
Sure, the documented melting point for NS(=O)(=O)c1ccc(CC(=O)C=CC(=O)O)cc1 is 180 to 181 °C

###

outcome-measure: melting point

Sample records with melting point:
INSERT INTO assay_data (compound, reading) VALUES
  ('CCn1c(=O)n(OCc2ccccc2)c(=O)c2cc(F)c(Cl)nc21', '156 to 157 °C'),
  ('CC(NC(=O)c1ccccc1)c1c[nH]c(-c2ccccc2)n1 (centres undefined)', '132 to 135 °C'),
  ('CN1CCC(Oc2c(F)cc3c(=O)c(C(=O)O)cn(C4CC4)c3c2F)CC1', '166 to 167 °C'),
  ('C#Cc1cc(Nc2ncnc3cnc(NC(=O)CP(=O)(OCC)OCC)cc23)ccc1Cl', '124 to 127 °C'),
  ('COc1ccc(N2CCN(c3ccc(-n4cn[nH]c4=O)cc3)CC2)cc1', '300 °C');

Consider the record given below.
Form: compound = COc1ccc(-c2cc(-c3ccc(OC)c(OC)c3)c(C#N)c(C)n2)cc1 ; melting point = 187 to 188 °C

Reference source for all entries: a melting point compilation (Tetko et al.; mined from patent text by program, amines drawn as free bases though some values may be those of a salt)
